- target.system: Aminopeptidase N (Sus scrofa, UniProt P15145)
- Sequence (P15145 whole entry): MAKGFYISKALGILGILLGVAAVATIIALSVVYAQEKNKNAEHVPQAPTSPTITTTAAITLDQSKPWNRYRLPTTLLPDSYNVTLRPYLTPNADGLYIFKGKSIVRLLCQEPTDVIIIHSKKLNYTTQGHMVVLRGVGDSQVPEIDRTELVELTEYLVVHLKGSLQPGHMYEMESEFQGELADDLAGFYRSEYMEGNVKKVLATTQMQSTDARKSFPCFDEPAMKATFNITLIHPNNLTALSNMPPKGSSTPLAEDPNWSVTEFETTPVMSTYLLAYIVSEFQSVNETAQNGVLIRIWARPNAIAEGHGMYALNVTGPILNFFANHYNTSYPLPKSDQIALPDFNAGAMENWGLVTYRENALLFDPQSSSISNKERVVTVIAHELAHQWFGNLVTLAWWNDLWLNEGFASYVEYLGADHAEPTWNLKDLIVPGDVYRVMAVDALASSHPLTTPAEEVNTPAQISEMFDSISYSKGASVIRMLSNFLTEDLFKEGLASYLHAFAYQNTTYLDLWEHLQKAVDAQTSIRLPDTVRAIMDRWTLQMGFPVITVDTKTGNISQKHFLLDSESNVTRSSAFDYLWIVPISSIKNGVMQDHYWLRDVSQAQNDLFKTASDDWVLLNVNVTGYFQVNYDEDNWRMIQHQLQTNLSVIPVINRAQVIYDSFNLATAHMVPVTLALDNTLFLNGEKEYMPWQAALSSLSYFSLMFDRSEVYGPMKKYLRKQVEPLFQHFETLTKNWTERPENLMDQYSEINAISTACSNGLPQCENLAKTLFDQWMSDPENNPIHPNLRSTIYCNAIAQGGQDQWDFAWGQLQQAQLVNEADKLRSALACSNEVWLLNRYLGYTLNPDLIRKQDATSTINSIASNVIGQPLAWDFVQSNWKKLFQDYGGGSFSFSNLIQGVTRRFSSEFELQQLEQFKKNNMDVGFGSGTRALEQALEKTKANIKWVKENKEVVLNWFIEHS
# literature pull: Aminopeptidase N (Sus scrofa, UniProt P15145) IC50
Numbers only here, please. The scale is µM.

CC(C)NC(=O)[C@H](N)[C@@H](O)c1ccc([N+](=O)[O-])cc1 | 251
CC(C)C[C@H](NC(=O)Nc1cccc(O)c1)C(=O)NO | 1.7

Next, consider the following compound.
Query: IC50; subject: N[C@H](Cc1ccccc1)C(=O)CC(=O)OCc1ccccc1 711

====

- target.system: Aminopeptidase N (Sus scrofa)
- Sequence (P15145 whole entry): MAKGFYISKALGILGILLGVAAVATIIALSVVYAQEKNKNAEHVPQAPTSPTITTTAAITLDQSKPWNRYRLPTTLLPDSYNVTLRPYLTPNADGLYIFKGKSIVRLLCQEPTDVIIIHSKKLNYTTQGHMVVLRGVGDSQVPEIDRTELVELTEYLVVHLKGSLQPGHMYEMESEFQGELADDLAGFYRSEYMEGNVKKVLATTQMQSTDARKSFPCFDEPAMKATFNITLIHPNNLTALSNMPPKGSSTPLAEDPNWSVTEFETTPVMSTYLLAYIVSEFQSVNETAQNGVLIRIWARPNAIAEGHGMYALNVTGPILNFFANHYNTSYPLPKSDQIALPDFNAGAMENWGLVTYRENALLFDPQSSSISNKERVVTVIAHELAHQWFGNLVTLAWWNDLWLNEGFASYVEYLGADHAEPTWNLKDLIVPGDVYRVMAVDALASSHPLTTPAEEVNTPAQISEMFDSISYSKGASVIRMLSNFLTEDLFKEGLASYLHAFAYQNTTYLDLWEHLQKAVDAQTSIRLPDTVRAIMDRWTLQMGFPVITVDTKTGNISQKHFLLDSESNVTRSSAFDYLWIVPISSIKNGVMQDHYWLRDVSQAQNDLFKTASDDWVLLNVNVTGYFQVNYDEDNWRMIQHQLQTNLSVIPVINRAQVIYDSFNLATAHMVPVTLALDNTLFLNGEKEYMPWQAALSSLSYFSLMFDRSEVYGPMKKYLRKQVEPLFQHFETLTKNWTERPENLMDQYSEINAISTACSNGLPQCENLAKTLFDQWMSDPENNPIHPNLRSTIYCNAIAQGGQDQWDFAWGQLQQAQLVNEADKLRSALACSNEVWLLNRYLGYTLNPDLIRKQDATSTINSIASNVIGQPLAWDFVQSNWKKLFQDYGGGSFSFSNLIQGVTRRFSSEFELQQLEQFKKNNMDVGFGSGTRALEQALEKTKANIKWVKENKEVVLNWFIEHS
pIC50: −log10 of the molar value.
# literature pull: Aminopeptidase N (Sus scrofa) pIC50
Rule: class 1 for pIC50 not less than 5, class 0 for anything less.

CC(C)C[C@H](NC(=O)NCCc1ccccc1)C(=O)NO | class 1

Reported pIC50 reaches at least 5 for Cc1ccc(S(=O)(=O)N2CC3(C[C@H]2C(=O)N/N=C/c2ccccc2Cl)SCCS3)cc1 ? class 0

Request: CC(C)C[C@H](NC(=O)[C@@H](O)[C@H](N)Cc1ccccc1)C(=O)NCc1ccc(C(=O)NO)cc1 class 1

Request: CCCNNC(=O)c1ccc(CNC(=O)[C@H](CC(C)C)NC(=O)[C@@H](NC(=O)[C@@H](O)[C@H](N)Cc2ccccc2)[C@@H](C)CC)cc1 class 1

Request: CC(C)C[C@H](NC(=O)NCc1cn(Cc2cccc([N+](=O)[O-])c2)nn1)C(=O)NO class 1

Request: O=C(/C=C/c1ccccc1)N[C@H](CC(=O)Nc1cccc(Cl)c1)C(=O)NO class 0

Request: O=C(NO)C(Cc1cccc(Oc2ccccc2)c1)C(=O)NCCCCc1ccccc1 (stereo not drawn) class 0
